Experiment: Lipophilicity of the compound assessed as retardation factor using hexane-ethyl acetate solvent system (5:2) on silica gel TLC plate system
Assay type: physicochemical
Conditions: hexane-ethyl acetate (5:2)
met means recorded Rf is 0.6 or above; not met means it is below 0.6.

>  <COMPOUND>
C=C(C)C1Cc2c(cc(OC)c(C(C)O)c2OC)O1 (stereo not drawn)

>  <CLASS_LABEL>
met

$$$$
>  <COMPOUND>
C=C(C)c1cc2cc(C(C)=O)c(O)cc2o1

>  <CLASS_LABEL>
met

$$$$
>  <COMPOUND>
C=C(C)C1Cc2c(cc(OC)c(C(C)=O)c2O)O1 (racemic)

>  <CLASS_LABEL>
not met

$$$$
>  <COMPOUND>
COc1cc2c(c(OC)c1C(C)=O)CC(C(C)C)O2 (stereo not drawn)

>  <CLASS_LABEL>
not met

$$$$
>  <COMPOUND>
C=C(C)C1Cc2cc(OC)ccc2O1 (stereo not drawn)

>  <CLASS_LABEL>
met

$$$$
>  <COMPOUND>
C=C(C)C1Cc2ccc(OC)cc2O1 (stereo not drawn)

>  <CLASS_LABEL>
met

$$$$
>  <COMPOUND>
C=C(C)C1Cc2c(cc(OC)c(OC)c2OC)O1 (stereo not drawn)

>  <CLASS_LABEL>
met

$$$$
>  <COMPOUND>
C=C(C)C1Cc2c(cc(OC)c(C(C)=O)c2OC)O1 (stereo not drawn)

>  <CLASS_LABEL>
not met

$$$$
>  <COMPOUND>
C=C(C)C1Cc2cc(C(C)=O)c(OC)cc2O1 (stereo not drawn)

>  <CLASS_LABEL>
met

$$$$
>  <COMPOUND>
C=C(C)C1Cc2c(OC)cc(OC)c(C(C)=O)c2O1 (stereo not drawn)

>  <CLASS_LABEL>
not met

$$$$
>  <COMPOUND>
C=C(C)C1Cc2c(OC)cc(OC)cc2O1 (stereo not drawn)

>  <CLASS_LABEL>
met

$$$$
>  <COMPOUND>
C=C(C)C1Cc2ccccc2O1 (stereo not drawn)

>  <CLASS_LABEL>
met

$$$$
>  <COMPOUND>
C=C(C)[C@@H]1Cc2c(cc(OC)c(C(C)=O)c2O)O1

>  <CLASS_LABEL>
not met

$$$$

* * *

The reader will find reported Rf values listed item by item below.
Experiment: Lipophilicity of the compound assessed as retardation factor using hexane-ethyl acetate solvent system (5:2) on silica gel TLC plate system
Type: physicochemical
Details: hexane-ethyl acetate (5:2)

>  <COMPOUND>
C=C(C)C1Cc2cc(C(C)=O)ccc2O1 (racemic)

>  <Rf>
0.61

$$$$
>  <COMPOUND>
C=C(C)c1cc2cc(C(C)=O)c(OC)cc2o1 [MethylEuparin]

>  <Rf>
0.66

$$$$
>  <COMPOUND>
C=C(C)C1Cc2c(OC)c(OC)c(OC)c(C(C)=O)c2O1 (stereo not drawn)

>  <Rf>
0.52

$$$$

* * *

Tested on: Spodoptera litura
Test: Antifeedant activity against Spodoptera litura third-instar larvae fed on compound treated fresh sweet potato leaves by dual choice leaf disk assay
Type: functional
The reader will find reported pED50 values listed item by item below.

>  <MOLECULE>
C=C(C)C1Cc2c(cc(OC)c(C(C)=O)c2OC)O1 (centres undefined)

>  <pED50>
7.55

$$$$
>  <MOLECULE>
C=C(C)C1Cc2cc(C(C)=O)c(OC)cc2O1 (centres undefined)

>  <pED50>
7.38

$$$$
>  <MOLECULE>
C=C(C)C1Cc2cc(OC)ccc2O1 (centres undefined)

>  <pED50>
6.89

$$$$
>  <MOLECULE>
C=C(C)C1Cc2ccc(OC)cc2O1 (centres undefined)

>  <pED50>
6.2

$$$$
